- System: Klebsiella pneumoniae Kp BM1
- Assay type: cell-based
- measurementContext: Kp BM1
Where a SMILES comes first, the peptide text is derived from it. Bridges are numbered along the chain shown (N, C = ends). [ ]: non-standard residue; d: D form. The star is where a group is joined. Quinoxaline2carbonyl = O=C(c1cnc2ccccc2n1)*; X43 = O=C(c1ccc(-c2ccc(Cl)cc2)cn1)*; X2 = O=C(c1cc(Cl)cc(Cl)n1)*; X15 = O=C(c1ccc(Cl)nc1Cl)*; Dab = NCC[C@H](N)C(=O)O; X68 = O=C(c1coc(Br)c1)*; Abu = CC[C@H](N)C(=O)O; Dap = NC[C@H](N)C(=O)O
Exercise: state measured Minimum inhibitory concentration for each of the molecules provided.
Give bare numbers, in µg/mL.

molecule="CC[C@@H]1NC(=O)[C@@H](CC(C)C)NC(=O)[C@H](CCN)NC(=O)[C@@H](NC(=O)[C@H](CN)NC(=O)[C@@H](NC(=O)[C@H](CCN)NC(=O)c2cnc3ccccc3n2)[C@@H](C)O)CCNC(=O)[C@H]([C@@H](C)O)NC(=O)[C@H](CCN)NC(=O)[C@H](CCN)NC1=O [Compound 46] (Quinoxaline2carbonyl-[Dab]T[Dap][Dab][Dab][dL][Abu][Dab][Dab]T; lactam 4-C)" testvalue=0.25

For each entry beneath this line, provide reported Minimum inhibitory concentration.
1. CC[C@@H]1NC(=O)[C@@H](CC(C)C)NC(=O)[C@H](CCN)NC(=O)[C@@H](NC(=O)[C@H](CN)NC(=O)[C@@H](NC(=O)[C@H](CCN)NC(=O)c2cc(Cl)cc(Cl)n2)[C@@H](C)O)CCNC(=O)[C@H]([C@@H](C)O)NC(=O)[C@H](CCN)NC(=O)[C@H](CCN)NC1=O [Compound 18] (X2-[Dab]T[Dap][Dab][Dab][dL][Abu][Dab][Dab]T; lactam 4-C)
2. CC(C)C[C@H]1NC(=O)[C@H](CCN)NC(=O)[C@@H](NC(=O)[C@H](CN)NC(=O)[C@@H](NC(=O)[C@H](CCN)NC(=O)c2ccc(-c3ccc(Cl)cc3)cn2)[C@@H](C)O)CCNC(=O)[C@H]([C@@H](C)O)NC(=O)[C@H](CCN)NC(=O)[C@H](CCN)NC(=O)[C@H]([C@@H](C)O)NC1=O [Compound 15] (X43-[Dab]T[Dap][Dab][Dab][dL]T[Dab][Dab]T; lactam 4-C)
3. CC[C@@H]1NC(=O)[C@@H](CC(C)C)NC(=O)[C@H](CCN)NC(=O)[C@@H](NC(=O)[C@H](CN)NC(=O)[C@@H](NC(=O)[C@H](CCN)NC(=O)c2coc(Br)c2)[C@@H](C)O)CCNC(=O)[C@H]([C@@H](C)O)NC(=O)[C@H](CCN)NC(=O)[C@H](CCN)NC1=O [Compound 103] (X68-[Dab]T[Dap][Dab][Dab][dL][Abu][Dab][Dab]T; lactam 4-C)

# output
1: 0.25; 2: 0.5; 3: 0.5

Klebsiella pneumoniae Kp BM1 data for CC[C@@H]1NC(=O)[C@@H](CC(C)C)NC(=O)[C@H](CCN)NC(=O)[C@@H](NC(=O)[C@H](CN)NC(=O)[C@@H](NC(=O)[C@H](CCN)NC(=O)c2ccc(Cl)nc2Cl)[C@@H](C)O)CCNC(=O)[C@H]([C@@H](C)O)NC(=O)[C@H](CCN)NC(=O)[C@H](CCN)NC1=O [Compound 7] (X15-[Dab]T[Dap][Dab][Dab][dL][Abu][Dab][Dab]T; lactam 4-C) ; its Minimum inhibitory concentration: 0.5
